target: CDK6 (Homo sapiens, UniProt Q00534); assay: In vitro kinase inhibition IC50, luminescence (ADP Glo), retinoblastoma substrate; details: read-out: CDK6/D1 IC50
Sequence (Q00534 whole entry): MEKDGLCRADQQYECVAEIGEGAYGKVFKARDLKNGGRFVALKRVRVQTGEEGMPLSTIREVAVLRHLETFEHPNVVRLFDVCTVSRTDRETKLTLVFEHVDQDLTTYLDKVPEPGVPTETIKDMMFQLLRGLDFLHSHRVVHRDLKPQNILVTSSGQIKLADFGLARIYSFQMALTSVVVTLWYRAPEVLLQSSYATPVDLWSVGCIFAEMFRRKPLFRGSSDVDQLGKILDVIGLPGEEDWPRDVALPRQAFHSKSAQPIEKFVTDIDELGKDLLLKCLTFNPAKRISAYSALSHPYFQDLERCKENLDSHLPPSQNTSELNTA
Sequence (P24385 whole entry partner): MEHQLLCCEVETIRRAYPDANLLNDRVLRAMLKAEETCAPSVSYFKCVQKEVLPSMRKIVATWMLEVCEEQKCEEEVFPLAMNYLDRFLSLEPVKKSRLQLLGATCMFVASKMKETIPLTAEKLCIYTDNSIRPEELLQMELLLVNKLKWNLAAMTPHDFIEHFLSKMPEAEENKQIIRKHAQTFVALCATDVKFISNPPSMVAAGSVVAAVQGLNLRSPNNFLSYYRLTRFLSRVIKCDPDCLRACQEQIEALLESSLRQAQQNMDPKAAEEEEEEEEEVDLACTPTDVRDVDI
readout kind: IC50 (nM)
Number only, in nM; omit the unit.

Complete the entry with IC50 for N#Cc1cc2cnc(Nc3ccc4c(c3)CCNC4)nc2n(C23CC(C2)C3)c1=O
47

Specify reported IC50 for the molecule shown: CS(=O)(=O)N1CCC(Nc2ncc3cc(C(F)F)c(=O)n(C4CC5CCC4C5)c3n2)CC1 (racemic)
4.5

Specify measured IC50 for CC1CCN(c2ccc(Nc3ncc4cc(C#N)c(=O)n(C5CCCC5)c4n3)cc2)CC1 .
38

Answer with the recorded IC50 of CS(=O)(=O)N1CCC(Nc2ncc3cc(C#N)c(=O)n([C@@H]4C[C@H]5CC[C@@H]4C5)c3n2)CC1 only.
4

Provide measured IC50 value, entry: N#Cc1cc2cnc(NC3CCN(S(=O)(=O)C4CC4)CC3)nc2n(C2CCCC2)c1=O
4.5

Quick one: give measured IC50 for N#Cc1cc2cnc(Nc3ccc4c(n3)CCNC4)nc2n(C2CCCC2)c1=O
54
